TARGET_OF_ASSAY: T1, phosphorylated Aurora-A^CAKD (Aurora-A 122–403 C290A C393A, not co-expressed with lambda phosphatase) (human, UniProt O14965 122-403, C290A | C393A, phosphorylated (sites of this preparation not printed in the text shown))
T1 construct: Aurora-A kinase domain, human, residues 122-403; also called phosphorylated kinase; Aurora-A 122–403 C290A C393A phosphorylated protein; source: E. coli B834, not co-expressed with lambda phosphatase, purified (HisTrap, TEV cleavage, SEC); not shown: His6, N-terminal, cleaved
T1 sequence (looked up): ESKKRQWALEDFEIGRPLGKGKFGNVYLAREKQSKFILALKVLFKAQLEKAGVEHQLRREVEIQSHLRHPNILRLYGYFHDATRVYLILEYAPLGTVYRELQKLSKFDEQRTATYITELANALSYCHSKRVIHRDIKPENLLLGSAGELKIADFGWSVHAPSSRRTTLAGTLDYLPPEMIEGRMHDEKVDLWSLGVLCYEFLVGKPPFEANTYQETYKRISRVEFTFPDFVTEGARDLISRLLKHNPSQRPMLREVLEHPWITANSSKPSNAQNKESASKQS
MEASUREMENT_PROTOCOL: ITC; 250 μM Aurora-A in the syringe, 25 μM CEP192 construct in the cell; 25 °C; 20 mM tris pH 7.5, 200 mM NaCl, 10% glycerol, 5 mM MgCl2
TEST_SETTINGS: both partners purified
MEASURE: pKd
Remember the convention: pKd equals -log10 of concentration in molar.

[Q] pKd lookup needed for human CEP192 468–533 (domain or fragment, UniProt Q8TEP8 468-533, looked up, also called CEP192_(506-527_F); source: E. coli B834 RIL, purified (HisTrap, TEV cleavage, SEC); for crystallisation co-expressed with Aurora-A^M7KD and co-purified; not shown: His6, N-terminal, cleaved; SUMO, N-terminal, cleaved) PQSVVYQNEEGRWVTDLAYYTSFNSKQNLNVSLSDEMNEDFRSGSEAFDLIAQDEEEFNKEHQFIQ , thanks.
[A] 6.87
